All figures here come from patent US9238666B2.

Assay: Solubility at different pH conditions (equilibrium, 24 h, HPLC)
Type: physicochemical
Details: pH 3, room temperature
property_name: Solubility at 24 h (µg/mL)

O=P(O)(O)NS(=O)(=O)c1cncc(-c2nc(NCc3ccccn3)c3c(-c4ccccc4)cccc3n2)c1 [Compound 6] = 70
O=P(O)(O)NS(=O)(=O)c1cncc(-c2nc(NCc3ccccn3)c3c(-c4ccccc4)cccc3n2)c1 [Compound 8] = 20
O=P(O)(O)NS(=O)(=O)c1cncc(-c2nc(NCc3ccccn3)c3c(-c4ccccc4)cccc3n2)c1 [Compound 7] = 20

1: O=P(O)(O)NS(=O)(=O)c1cncc(-c2nc(NCc3ccccn3)c3c(-c4ccccc4)cccc3n2)c1 [Compound 5]
2: O=P(O)(O)NS(=O)(=O)c1cncc(-c2nc(NCc3ccccn3)c3c(-c4ccccc4)cccc3n2)c1 [Compound 3]
Which numeric Solubility at 24 h is bigger, that of 1 or that of 2 ? Kindly give the label for the entry you pick.
1

====

Target: Kv1.5 channel of voltage-gated K+ channels (Homo sapiens, UniProt P22460)
Sequence (P22460 whole entry): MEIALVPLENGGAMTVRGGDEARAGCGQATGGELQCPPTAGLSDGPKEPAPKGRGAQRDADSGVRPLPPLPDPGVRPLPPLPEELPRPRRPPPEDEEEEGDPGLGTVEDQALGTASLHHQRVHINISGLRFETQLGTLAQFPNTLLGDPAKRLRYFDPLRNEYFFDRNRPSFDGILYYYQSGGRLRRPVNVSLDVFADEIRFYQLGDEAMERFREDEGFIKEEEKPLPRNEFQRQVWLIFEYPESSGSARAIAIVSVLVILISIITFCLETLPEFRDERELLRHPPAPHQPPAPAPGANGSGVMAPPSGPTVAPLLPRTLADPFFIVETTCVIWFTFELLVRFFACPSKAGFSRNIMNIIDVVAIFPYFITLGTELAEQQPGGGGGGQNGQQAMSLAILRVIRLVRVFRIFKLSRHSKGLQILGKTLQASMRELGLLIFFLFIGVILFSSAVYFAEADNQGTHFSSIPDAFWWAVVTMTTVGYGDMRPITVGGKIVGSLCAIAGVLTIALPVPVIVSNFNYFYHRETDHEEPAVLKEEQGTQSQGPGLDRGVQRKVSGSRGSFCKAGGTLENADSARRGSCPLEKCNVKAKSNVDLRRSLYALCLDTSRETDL
Experiment: Kv1.5 channel inhibition
property_name: pIC50
Worth noting: pIC50 values are minus log10 of concentrations stated in mol/L.

For the molecule NS(=O)(=O)c1cncc(-c2nc(NCc3ccccn3)c3c(-c4ccccc4)cccc3n2)c1 [Compound 1, reference compound] , give its reported pIC50.
7.34

====

Assay: Solubility at different pH conditions (equilibrium, 24 h, HPLC)
Format: physicochemical
Details: buffer, pH 2, aqueous buffer, thermodynamic from solid, pH 2, room temperature; read-out: Solubility at 24 h
property_name: Solubility at 24 h (µg/mL)
Dear colleague, please return just the value in µg/mL, with no unit written.

Look up and state reported Solubility at 24 h for NS(=O)(=O)c1cncc(-c2nc(NCc3ccccn3)c3c(-c4ccccc4)cccc3n2)c1 [Compound 1, reference compound]
410

====

Assay: Solubility at different pH conditions (equilibrium, 24 h, HPLC)
Format: physicochemical
Settings: buffer, pH 6.5, aqueous buffer, thermodynamic from solid, pH 6.5, room temperature; read-out: Solubility at 24 h
Recorded Solubility at 24 h by entry

NS(=O)(=O)c1cncc(-c2nc(NCc3ccccn3)c3c(-c4ccccc4)cccc3n2)c1 [Compound 1, reference compound] = < 1 µg/mL

Name the recorded Solubility at 24 h of the item O=P(O)(O)N(P(=O)(O)O)S(=O)(=O)c1cncc(-c2nc(NCc3ccccn3)c3c(-c4ccccc4)cccc3n2)c1 in your answer.
> 4580 µg/mL

====

Assay: Solubility at different pH conditions (equilibrium, 24 h, HPLC)
Type: physicochemical
Conditions: pH 7.4, room temperature
property_name: Solubility at 24 h (µg/mL)

O=P(O)(O)NS(=O)(=O)c1cncc(-c2nc(NCc3ccccn3)c3c(-c4ccccc4)cccc3n2)c1 [Compound 3] = 7300
O=P(O)(O)NS(=O)(=O)c1cncc(-c2nc(NCc3ccccn3)c3c(-c4ccccc4)cccc3n2)c1 [Compound 5] = 2514
O=P(O)(O)NS(=O)(=O)c1cncc(-c2nc(NCc3ccccn3)c3c(-c4ccccc4)cccc3n2)c1 [Compound 2] = 560

a: O=P(O)(O)NS(=O)(=O)c1cncc(-c2nc(NCc3ccccn3)c3c(-c4ccccc4)cccc3n2)c1 [Compound 8]
b: O=P(O)(O)NS(=O)(=O)c1cncc(-c2nc(NCc3ccccn3)c3c(-c4ccccc4)cccc3n2)c1 [Compound 7]
Lower value for measured Solubility at 24 h? Options: a , b When you have decided, please share the label of that item.
a
